Assay: osmotic lysis modulators in infected erythrocytes, primary screen, PSAC antagonist project, cell-based, P. falciparum Indochina, OD700, 3 h (AID 1156)
Details: higher = more signal, called active from +8 up or from −8 down

>  <Compound>
CCOC(=O)C1=CC[C@@H](c2ccccc2)N(S(=O)(=O)c2ccc(C)cc2)[C@H]1c1cccc(OC)c1

>  <z-score>
-0.422

$$$$
>  <Compound>
C=C(C(=O)CC[C@@H](OC(=O)c1ccccc1-c1ccccc1C(=O)O)c1ccccc1OCCO)C(C)C

>  <z-score>
1.56

$$$$
>  <Compound>
COC(=O)C1=CC(CCCO)=CC(c2ccc(CN3CCCC3)cc2)N(Cc2cc3c(cc2Br)OCO3)C=C1C(=O)OC (stereo not given)

>  <z-score>
1.23

$$$$
>  <Compound>
CCCCC=C[C@@H](NC(=O)c1ccccc1)c1ccccc1

>  <z-score>
0.893

$$$$
>  <Compound>
CCC(CC)C(O)C1C=CC2C(=O)N(c3ccccc3)C(=O)C2N1Nc1ccc([N+](=O)[O-])cc1 (stereo not given)

>  <z-score>
0.136

$$$$
>  <Compound>
CC(=O)N1CC(C(O)C2C=CC3C(=O)NC(=O)C3N2Nc2ccc(Cl)cc2Cl)c2ccccc21 (stereo not given)

>  <z-score>
-0.0499

$$$$
>  <Compound>
O=c1cccc(-c2ccc(F)cc2)o1

>  <z-score>
-0.099

$$$$
>  <Compound>
CCc1cccc(NC(=O)O[C@H]2[C@H](OC(=O)Nc3ccccc3)[C@H](OC(=O)Nc3ccccc3)[C@@H](OC)O[C@@H]2CO)c1

>  <z-score>
-1.53

$$$$
>  <Compound>
CS(=O)(=O)CCOC(=O)C1=CC(CCCO)=CC(C2CC2)N(Cc2cccc(OC(F)(F)F)c2)C=C1C(=O)OCCS(C)(=O)=O (stereo not given)

>  <z-score>
-0.352

$$$$
>  <Compound>
C=C(COC)/C(=C/C[C@@H](OC(=O)c1ccncc1)c1ccccc1OCCO)c1cc(C(=O)OC)ccc1OC

>  <z-score>
1.74

$$$$
>  <Compound>
CN(C)CCCCNC(=O)[C@H]1C[C@H]2C(=O)N[C@@H](CCCC[N+](C)(C)C)C(=O)N2[C@H]1c1ccc(O)cc1

>  <z-score>
-0.27

$$$$
>  <Compound>
COc1ccc(C#Cc2ccc3c(c2)[C@]2(C(=O)N3)[C@H](C(=O)Nc3nc4ccccc4s3)[C@H]3C(=O)O[C@H](c4ccccc4)[C@H](c4ccccc4)N3[C@@H]2c2ccccc2OCCO)cc1

>  <z-score>
-0.279

$$$$
>  <Compound>
Cc1ccc(S[C@]2(C(=O)NCc3ccccc3)CC(=O)N(Cc3cc(C(F)(F)F)cc(C(F)(F)F)c3)[C@@H]2c2ccc(CO)cc2I)cc1

>  <z-score>
-0.0654

$$$$
>  <Compound>
O=C1N(CCS(=O)(=O)c2ccccc2)Cc2ccccc2[C@@H]2OC(c3ccc(OCCCO)cc3)=N[C@]12CCS(=O)(=O)c1ccccc1

>  <z-score>
3.14

$$$$
>  <Compound>
COc1cc(NN2C(C(O)C3CCCCC3)C=CC3C(=O)N(c4ccccc4)C(=O)C32)cc(OC)c1OC (stereo not given)

>  <z-score>
1.36

$$$$
>  <Compound>
COC(=O)C(CC#Cc1ccc2c(c1)[C@]1(C(=O)N2)[C@H](C(=O)Nc2nc3ccccc3s2)[C@H]2C(=O)O[C@H](c3ccccc3)[C@H](c3ccccc3)N2[C@@H]1c1ccc(OCCO)cc1)C(=O)OC

>  <z-score>
0.299

$$$$
>  <Compound>
C=CCC(OC(C)=O)[C@@H]1[C@@H](N(Cc2cccc3ccccc23)C(=O)Cc2ccc(F)cc2)c2cc(OCCCO)ccc2N1C(=O)c1ccc(-c2ccccc2)cc1 (stereo not given in full)

>  <z-score>
-0.402

$$$$
>  <Compound>
C=C[C@@H](OC)[C@H](OC(=O)Nc1ccc(OC)cc1)c1ccc(OC)c(O)c1

>  <z-score>
0.0081

$$$$
>  <Compound>
C[C@@]12COC[C@]13C=C(Br)[C@H](C2)[C@@]1(CO1)C3=O

>  <z-score>
-0.347

$$$$
>  <Compound>
CCCNC(=O)[C@@]1(C)c2ccccc2C(=O)N(Cc2ccccc2)[C@H]1c1ccc(CO)cc1

>  <z-score>
0.231

$$$$
>  <Compound>
CCOC(=O)C1=CCN(S(=O)(=O)c2ccc(C)cc2)C1c1ccccc1 (stereo not given)

>  <z-score>
-0.451

$$$$
>  <Compound>
CCCC=C(CCC)[C@@H](NS(=O)(=O)c1cccc2cccnc12)c1ccc(-c2ccccc2)cc1

>  <z-score>
1.24

$$$$
>  <Compound>
CCCNC(=O)[C@@]1(Sc2ccc(C)cc2)CC(=O)N(C(C)C)[C@@H]1c1ccc(CO)cc1I

>  <z-score>
0.0627

$$$$
>  <Compound>
COc1cc(CO)cc(I)c1O[C@H]1C=C(C(=O)NCCO)C[C@@H](NCC2CCCCC2)[C@@H]1O

>  <z-score>
0.996

$$$$
>  <Compound>
CCOC(=O)C1=CCC(c2ccco2)N(S(=O)(=O)c2ccc(C)cc2)C1 (stereo not given)

>  <z-score>
0.252

$$$$
>  <Compound>
C=CCNC(=O)[C@@H]1[C@H]2C(=O)O[C@H](c3ccccc3)[C@H](c3ccccc3)N2[C@H](c2ccc(O)cc2)[C@@]12C(=O)Nc1ccc(C#CCC(C(=O)OC)C(=O)OC)cc12

>  <z-score>
2.3

$$$$
>  <Compound>
COc1ccc(C(=O)Nc2cccc(CN3C(=O)[C@]4(O[C@H](CCn5cc([C@H](O)c6ccccc6)nn5)[C@@H]([Si](C)(C)c5ccc(OC)cc5)[C@@H]4C)c4ccccc43)c2)cc1

>  <z-score>
1.82

$$$$
>  <Compound>
NCCCCCNC(=O)[C@H]1C[C@H]2C(=O)N[C@@H](Cc3ccccc3)C(=O)N2[C@H]1c1ccc(O)cc1

>  <z-score>
1.54

$$$$
>  <Compound>
CC=CC(O)C1C=CC2C(=O)NC(=O)C2N1Nc1ccccn1 (stereo not given)

>  <z-score>
0.0091

$$$$
>  <Compound>
COc1cc(NN2C(C(O)C3CCCCC3)C=CC3C(=O)N(C)C(=O)C32)cc(OC)c1OC (stereo not given)

>  <z-score>
0.917

$$$$
